experiment-summary: physchem
Description: Ionization constant (pKa)
quantity: pKa

CCC(=O)Nc1ccc2c(Nc3ccc(NS(C)(=O)=O)cc3)c3ccccc3nc2c1 : 7.35
CS(=O)(=O)Nc1ccc(Nc2c3ccccc3nc3cc(F)ccc23)cc1 : 6.77
COc1cc(NS(C)(=O)=O)ccc1Nc1c2ccccc2nc2cccnc12 : 7.19
COc1cc(NS(C)(=O)=O)ccc1Nc1c2ccccc2nc2cc(CCC(N)=O)ccc12 : 7.5
Cc1cc(NS(C)(=O)=O)ccc1Nc1c2ccccc2nc2ccccc12 : 7.36
CS(=O)(=O)Nc1ccc(Nc2c3ccccc3nc3cc(Cl)c(N)cc23)cc1 : 6.71
CN(C)/N=N/c1ccc2c(Nc3ccc(NS(C)(=O)=O)cc3)c3ccccc3nc2c1 : 7.13
COc1ccc2nc3cc(Cl)ccc3c(Nc3ccc(NS(C)(=O)=O)cc3OC)c2c1 : 6.52
COc1cc(NS(C)(=O)=O)ccc1Nc1c2ccccc2nc2cc(N=[N+]=[N-])ccc12 : 7.26

---

experiment-summary: physchem
quantity: pKa

Completed entries (count: 3):
COc1ccc2[nH]c3ccccc3c(=Nc3ccc(NS(C)(=O)=O)cc3OC)c2c1 : 7.1
CCc1ccc2nc3ccccc3c(Nc3ccc(NS(C)(=O)=O)cc3OC)c2c1 : 7.46
COc1cc(NS(C)(=O)=O)ccc1Nc1c2ccccc2nc2c(C)c(C)ccc12 : 7.65

1 = COc1cc(NS(C)(=O)=O)ccc1Nc1c2ccc(Br)cc2nc2cc(Br)ccc12
2 = COc1cc(NS(C)(=O)=O)ccc1Nc1c2ccc(N)cc2nc2c(C)cccc12
Sort 1 and 2 by pKa descending and give the first. Write the label of whichever entry you select.
2
(2: 9.88, 1: 6.17)

---

experiment-summary: physchem
quantity: pKa

CCCNc1ccc(Nc2c3ccccc3nc3ccccc23)cc1 : 8.24
COc1cc(NS(C)(=O)=O)ccc1Nc1c2ccc(C)cc2nc2cc([N+](=O)[O-])ccc12 : 6.03
COc1cc(NS(C)(=O)=O)ccc1Nc1c2ccc(I)cc2nc2c(OCC(O)CO)cccc12 (centres undefined) : 6.7
COc1cc(NS(C)(=O)=O)ccc1Nc1c2ccccc2nc2cc(NC(C)=O)ccc12 : 7.77
COc1cc(NS(C)(=O)=O)ccc1Nc1c2ccccc2nc2cc(C(F)(F)F)c(N)cc12 : 6.56
COc1cc(NS(C)(=O)=O)ccc1Nc1c2ccccc2nc2cccc([N+](=O)[O-])c12 : 4.98
COc1cc(NS(C)(=O)=O)ccc1N=c1c2ccccc2[nH]c2ccc(C(N)=O)cc12 : 6.59
COc1cc(NS(C)(=O)=O)ccc1N=c1c2ccccc2[nH]c2ccc(C(C)(C)C)cc12 : 7.38
CS(=O)(=O)Nc1ccc(Nc2c3ccc(Cl)cc3nc3ccc(N)cc23)cc1 : 6.56

---

experiment-summary: physchem
quantity: pKa

COc1cc(NS(C)(=O)=O)ccc1Nc1c2ccccc2nc2c(C)c(Cl)ccc12 : 6.71
CS(=O)(=O)Nc1ccc(Nc2c3ccccc3nc3ccccc23)cc1[N+](=O)[O-] : 5.42
COc1cc(NS(C)(=O)=O)ccc1Nc1c2ccc([N+](=O)[O-])cc2nc2cc([N+](=O)[O-])ccc12 : 3.82
COc1cc(NS(C)(=O)=O)ccc1Nc1c2ccc([N+](=O)[O-])cc2nc2c(OC)cccc12 : 5.68
CCc1cccc2c(Nc3ccc(NS(C)(=O)=O)cc3)c3ccccc3nc12 : 7.14
COc1cc(NS(C)(=O)=O)ccc1Nc1c2cccc(OC)c2nc2c(OC)cccc12 : 6.9
COc1cc(NS(C)(=O)=O)ccc1Nc1c2ccccc2nc2cc(S(C)(=O)=O)ccc12 : 5.87
COc1cc(NS(C)(=O)=O)ccc1Nc1c2ccc(I)cc2nc2c(OC)cccc12 : 6.74
Cc1ccc2c(Nc3ccc(NS(C)(=O)=O)cc3)c3ccc([N+](=O)[O-])cc3nc2c1 : 5.81
CS(=O)(=O)Nc1ccc(Nc2c3ccccc3nc3c(CO)cccc23)cc1 : 6.68
CCCC(=O)Nc1ccc2c(Nc3ccc(NS(C)(=O)=O)cc3)c3ccccc3nc2c1 : 7.37
COc1cc(NS(C)(=O)=O)ccc1Nc1c2ccccc2nc2c(OC3OC(CO)C(O)C(O)C3NC(C)=O)cccc12 (stereo not given) : 6.35
COc1cc(NS(C)(=O)=O)ccc1Nc1c2ccccc2nc2ccc(Cl)cc12 : 6.69
COc1cc(NS(C)(=O)=O)ccc1Nc1c2ccc(N=[N+]=[N-])cc2nc2c(C)cccc12 : 7.22
O=[N+]([O-])c1ccc2nc3ccccc3c(Nc3ccccc3)c2c1 : 6.26
COc1cc(NS(C)(=O)=O)ccc1Nc1c2ccccc2nc2cc(N)ccc12 : 7.36
CCCCOc1cccc2c(Nc3ccc(NS(C)(=O)=O)cc3OC)c3ccccc3nc12 : 7.34
COc1cc(NS(C)(=O)=O)ccc1Nc1c2ccccc2nc2cccc(C)c12 : 6.71
Cc1cc(NS(C)(=O)=O)ccc1Nc1c2ccccc2nc2c(C)cccc12 : 7.39
COc1cc(NS(C)(=O)=O)ccc1Nc1c2ccccc2nc2c(C(=O)NCCO)cccc12 : 6.34
